tested on: pigweed (Amaranthus retroflexus); assay: Test A postemergence; type: in vivo; conditions: 125 g ai/ha, 0 to 100 scale, 0 no effect, 100 complete control, approx. 10 days
ENDPOINT: Plant response rating, Pigweed
Number only, please.

Consider the reported Plant response rating, Pigweed for these compounds:
COMPOUND | ASSAY_SYSTEM | Plant response rating, Pigweed
O=C1CCCC(O)=C1C(=O)c1nc(Cl)c(-c2cccc(F)c2)n(C2CCCCC2)c1=O [Compound 2] | pigweed (Amaranthus retroflexus) | 30
COCCn1c(-c2cc(F)cc(F)c2)c(Cl)nc(C(=O)C2=C(O)CCCC2=O)c1=O [Compound 6] | pigweed (Amaranthus retroflexus) | 70
COCCCn1c(-c2cc(F)cc(F)c2)c(Cl)nc(C(=O)C2=C(O)CCCC2=O)c1=O [Compound 8] | pigweed (Amaranthus retroflexus) | 40

With those in mind, consider the next compound.
Measured Plant response rating, Pigweed, COCCn1c(-c2cccc(F)c2)c(Cl)nc(C(=O)C2=C(O)CCCC2=O)c1=O [Compound 4] : 80

====

system: pigweed (Amaranthus retroflexus); assay: Test A preemergence; format: in vivo; conditions: 500 g ai/ha, 0 to 100 scale, 0 no effect, 100 complete control, approx. 10 days
Listed here are compounds together with their documented Plant response rating, Pigweed.
// no unit, no text: just the number

COMPOUND | ENDPOINT | NUMERIC_READOUT
COCCn1c(-c2cc(F)cc(F)c2)c(Cl)nc(C(=O)C2=C(O)CCCC2=O)c1=O | Plant response rating, Pigweed | 90

Plant response rating, Pigweed value, target or system pigweed (Amaranthus retroflexus), for O=C1CCCC(O)=C1C(=O)c1nc(Cl)c(-c2cccc(F)c2)n(C2CCCCC2)c1=O : 80

Noted Plant response rating, Pigweed for COCCn1c(-c2cccc(F)c2)c(Cl)nc(C(=O)C2=C(O)CCCC2=O)c1=O [Compound 4] , tested on pigweed (Amaranthus retroflexus): 100

====

Tested on: rice (Oryza sativa)
Experiment: Test B flooded paddy test
Type: in vivo
Settings: Flood, 62 g ai/ha; scale 0 to 100
Description: Plant species in the flooded paddy test consisted of rice (Oryza sativa), umbrella sedge (Cyperus difformis), ducksalad (Heteranthera limosa) and barnyardgrass (Echinochloa crus-galli) grown to the 2-leaf stage for testing. […] Treated plants and controls were maintained in a greenhouse for 13 to 15 days, after which time all species were compared to controls and visually evaluated. […]
Measured Plant response rating, Rice of individual entries
// no unit string in output, number only

Solved entries (count: 3):
COMPOUND | Plant response rating, Rice
COCCCn1c(-c2cc(F)cc(F)c2)c(Cl)nc(C(=O)C2=C(O)CCCC2=O)c1=O [Compound 8] | 0
COCCn1c(-c2cc(F)cc(F)c2)cnc(C(=O)C2=C(O)CCCC2=O)c1=O [Compound 5] | 0
COCCn1c(-c2cccc(F)c2)c(Cl)nc(C(=O)C2=C(O)CCCC2=O)c1=O [Compound 4] | 0

With those in mind, consider the next compound.
// Plant response rating, Rice lookup, compound = COCCn1c(-c2cccc(F)c2)c(Cl)nc(C(=O)C2=C(O)CCCC2=O)c1=O [Compound 7] , result: 0

====

tested on: morningglory (Ipomoea spp.); assay: Test A preemergence; assay type: in vivo; settings: 125 g ai/ha, 0 to 100 scale, 0 no effect, 100 complete control, approx. 10 days
ENDPOINT: Plant response rating, Morningglory
Could you keep your reply to the number by itself?

MOLECULE | ENDPOINT | NUMERIC_READOUT
CCCCn1c(-c2ccccc2)cnc(C(=O)C2=C(O)CCCC2=O)c1=O | Plant response rating, Morningglory | 0
COCCn1c(-c2cc(F)cc(F)c2)cnc(C(=O)C2=C(O)CCCC2=O)c1=O | Plant response rating, Morningglory | 40
COCCn1c(-c2cccc(F)c2)c(Cl)nc(C(=O)C2=C(O)CCCC2=O)c1=O [Compound 4] | Plant response rating, Morningglory | 10
COCCCn1c(-c2cc(F)cc(F)c2)c(Cl)nc(C(=O)C2=C(O)CCCC2=O)c1=O | Plant response rating, Morningglory | 10
O=C1CCCC(O)=C1C(=O)c1nc(Cl)c(-c2cccc(F)c2)n(C2CCCCC2)c1=O | Plant response rating, Morningglory | 0

Record COCCn1c(-c2cccc(F)c2)c(Cl)nc(C(=O)C2=C(O)CCCC2=O)c1=O [Compound 7] , field Plant response rating, Morningglory: 0

The molecule listed as COCCn1c(-c2cc(F)cc(F)c2)c(Cl)nc(C(=O)C2=C(O)CCCC2=O)c1=O shows Plant response rating, Morningglory equal to 40

====

test system: rice (Oryza sativa); test: Test B flooded paddy test; type: in vivo; conditions: Flood, 250 g ai/ha; scale 0 to 100
ENDPOINT: Plant response rating, Rice
Please respond with just the number, no unit label.

COMPOUND | NUMERIC_READOUT
COCCn1c(-c2cc(F)cc(F)c2)c(Cl)nc(C(=O)C2=C(O)CCCC2=O)c1=O | 15
COCCn1c(-c2cc(F)cc(F)c2)cnc(C(=O)C2=C(O)CCCC2=O)c1=O | 20
CCCCn1c(-c2ccccc2)cnc(C(=O)C2=C(O)CCCC2=O)c1=O | 85

COCCCn1c(-c2cc(F)cc(F)c2)c(Cl)nc(C(=O)C2=C(O)CCCC2=O)c1=O on rice (Oryza sativa) gives Plant response rating, Rice = 25

Lab entry: rice (Oryza sativa) assay, compound O=C1CCCC(O)=C1C(=O)c1nc(Cl)c(-c2cccc(F)c2)n(C2CCCCC2)c1=O , Plant response rating, Rice = 0

Bench note, rice (Oryza sativa): entry O=C1CCCC(O)=C1C(=O)c1nc(Cl)c(-c2cccc(Cl)c2)n(C2CCCCC2)c1=O , its Plant response rating, Rice = 0

// returns Plant response rating, Rice for COCCn1c(-c2cccc(F)c2)c(Cl)nc(C(=O)C2=C(O)CCCC2=O)c1=O [Compound 4] with rice (Oryza sativa); value = 30

Measured Plant response rating, Rice (rice (Oryza sativa)), entry COCCn1c(-c2cccc(F)c2)c(Cl)nc(C(=O)C2=C(O)CCCC2=O)c1=O [Compound 7] : 15

====

tested on: pigweed (Amaranthus retroflexus); assay: Test A preemergence; assay type: in vivo; conditions: 125 g ai/ha, 0 to 100 scale, 0 no effect, 100 complete control, approx. 10 days
Recorded Plant response rating, Pigweed, one value per entry.
API note: the answer field is a bare number with no unit suffix.

Known Plant response rating, Pigweed results, listed for orientation:
MOLECULE | NUMERIC_READOUT
COCCn1c(-c2cccc(F)c2)c(Cl)nc(C(=O)C2=C(O)CCCC2=O)c1=O [Compound 4] | 60
COCCn1c(-c2cccc(F)c2)c(Cl)nc(C(=O)C2=C(O)CCCC2=O)c1=O [Compound 7] | 0
CCCCn1c(-c2ccccc2)cnc(C(=O)C2=C(O)CCCC2=O)c1=O | 60

# molecule COCCn1c(-c2cc(F)cc(F)c2)cnc(C(=O)C2=C(O)CCCC2=O)c1=O ; its Plant response rating, Pigweed = 90

COCCCn1c(-c2cc(F)cc(F)c2)c(Cl)nc(C(=O)C2=C(O)CCCC2=O)c1=O has a reported Plant response rating, Pigweed of 10

Lab book: Plant response rating, Pigweed of O=C1CCCC(O)=C1C(=O)c1nc(Cl)c(-c2cccc(F)c2)n(C2CCCCC2)c1=O noted as 0

Entry COCCn1c(-c2cc(F)cc(F)c2)c(Cl)nc(C(=O)C2=C(O)CCCC2=O)c1=O , Plant response rating, Pigweed reported as 50

====

Examples of molecules with documented Plant response rating, Pigweed follow.
system: pigweed (Amaranthus retroflexus); test: Test A postemergence; type: in vivo; conditions: 125 g ai/ha, 0 to 100 scale, 0 no effect, 100 complete control, approx. 10 days

Consider the following illustrative entries.
MOLECULE | Plant response rating, Pigweed
COCCn1c(-c2cccc(F)c2)c(Cl)nc(C(=O)C2=C(O)CCCC2=O)c1=O [Compound 7] | 80
CCCCn1c(-c2ccccc2)cnc(C(=O)C2=C(O)CCCC2=O)c1=O [Compound 1] | 60

Record COCCn1c(-c2cc(F)cc(F)c2)cnc(C(=O)C2=C(O)CCCC2=O)c1=O [Compound 5] . Reported Plant response rating, Pigweed: 100

====

test system: morningglory (Ipomoea spp.); assay: Test A postemergence; format: in vivo; conditions: 125 g ai/ha, 0 to 100 scale, 0 no effect, 100 complete control, approx. 10 days
Overview of reported Plant response rating, Morningglory across a group of molecules:
// return a plain number; no unit text

Examples with their reported Plant response rating, Morningglory follow.
MOLECULE | Plant response rating, Morningglory
COCCCn1c(-c2cc(F)cc(F)c2)c(Cl)nc(C(=O)C2=C(O)CCCC2=O)c1=O [Compound 8] | 50
COCCn1c(-c2cccc(F)c2)c(Cl)nc(C(=O)C2=C(O)CCCC2=O)c1=O [Compound 7] | 80
COCCn1c(-c2cccc(F)c2)c(Cl)nc(C(=O)C2=C(O)CCCC2=O)c1=O [Compound 4] | 90
COCCn1c(-c2cc(F)cc(F)c2)cnc(C(=O)C2=C(O)CCCC2=O)c1=O [Compound 5] | 90
O=C1CCCC(O)=C1C(=O)c1nc(Cl)c(-c2cccc(F)c2)n(C2CCCCC2)c1=O [Compound 2] | 60
COCCn1c(-c2cc(F)cc(F)c2)c(Cl)nc(C(=O)C2=C(O)CCCC2=O)c1=O [Compound 6] | 90

Per the records, this molecule ( CCCCn1c(-c2ccccc2)cnc(C(=O)C2=C(O)CCCC2=O)c1=O [Compound 1] ) has Plant response rating, Morningglory equal to 40
